biological target: human M4 receptor (Homo sapiens (Human)); assay: Radioligand (tritiated N-methylscopolamine) binding assay, M4; conditions: Ki against the M4 receptor; membranes from CHO cells expressing human M4; tritiated N-methylscopolamine 1.5 nM; read-out: Ki
Sequence (P08173 whole entry): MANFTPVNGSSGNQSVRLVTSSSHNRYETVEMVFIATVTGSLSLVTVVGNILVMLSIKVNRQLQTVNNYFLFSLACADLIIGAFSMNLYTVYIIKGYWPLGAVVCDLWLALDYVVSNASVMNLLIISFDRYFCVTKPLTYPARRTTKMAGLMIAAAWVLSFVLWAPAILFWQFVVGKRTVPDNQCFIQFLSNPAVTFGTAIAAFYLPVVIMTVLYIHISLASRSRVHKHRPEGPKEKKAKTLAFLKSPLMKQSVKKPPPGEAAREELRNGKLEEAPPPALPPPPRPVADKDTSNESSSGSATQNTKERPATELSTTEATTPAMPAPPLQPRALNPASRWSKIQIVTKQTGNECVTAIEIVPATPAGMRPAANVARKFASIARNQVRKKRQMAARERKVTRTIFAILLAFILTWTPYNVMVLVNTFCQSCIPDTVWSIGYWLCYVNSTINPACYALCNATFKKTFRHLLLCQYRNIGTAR
I'd be grateful if you could share measured Ki for these entries.

Item: Cc1ccc(-c2ccc(C(=O)NCCC3CCN(Cc4ccccc4)CC3)c(F)c2)cc1 Test system: human M4 receptor (Homo sapiens (Human)) Read-out: Ki Value: ?
10 to 100 nM

Same lookup for CCNC(=O)c1cnc(N2CCN(C(=O)NCCC3CCN(Cc4ccccc4)CC3)[C@H](C)C2)nc1 , please.
100 to 1000 nM

Same lookup for C[C@@H]1CN(c2ccnc(F)c2)CCN1C(=O)NCCC1CCN(Cc2ccccc2)CC1 , please.
10 to 100 nM

Same lookup for COc1nc(N2C[C@@H](C)N(C(=O)NCCC3CCN(Cc4ccccc4)CC3)[C@@H](C)C2)ncc1C#N [5-17] , please.
< 10 nM

Same lookup for C[C@@H]1CN(c2ncc(C(F)(F)F)cn2)CCN1C(=O)NCCC1CCN(Cc2cccc(F)c2)CC1 , please.
< 10 nM

Same lookup for C[C@@H]1CN(c2ncc(C(=O)N3CCCC3)cn2)C[C@H](C)N1C(=O)NCCC1CCN(Cc2ccccc2)CC1 , please.
100 to 1000 nM

Same lookup for N#Cc1ccc(N2CCC(C(=O)NCCC3CCN(CC4CCCCC4)CC3)CC2)nc1 , please.
100 to 1000 nM

Same lookup for O=C(NCCC1CCN(Cc2ccccc2)CC1)N1CCN(c2cccc(OC(F)(F)F)c2)CC1 , please.
10 to 100 nM

Same lookup for N#Cc1cncc(N2CCC(C(=O)NCCC3CCN(Cc4ccccc4)CC3)CC2)c1 , please.
100 to 1000 nM

Same lookup for C[C@@H]1CN(c2ncc(C#N)cn2)C[C@H](C)N1C(=O)NCCC1CCN(Cc2ccccn2)CC1 , please.
100 to 1000 nM

Same lookup for C[C@@H]1CN(c2ccc(C#N)cc2F)CCN1C(=O)NCCC1CCN(Cc2ccccc2)CC1 , please.
10 to 100 nM

Same lookup for C[C@@H]1CN(c2ncc(C#N)cn2)C[C@H](C)N1C(=O)NCCC1CCN(CC[Si](C)(C)C)CC1 , please.
< 10 nM

Same lookup for COc1ccc(N2CCN(C(=O)NCCC3CCN(Cc4ccccc4)CC3)[C@H](C)C2)cc1F , please.
10 to 100 nM

Same lookup for C[C@@H]1CN(c2cc(F)c(F)c(F)c2)CCN1C(=O)NCC[C@H]1CCN(Cc2ccccc2)C1 , please.
100 to 1000 nM

Same lookup for COc1cc(N2CCN(C(=O)NCCC3CCN(Cc4ccccc4)CC3)[C@H](C)C2)ccc1C#N , please.
10 to 100 nM

Same lookup for COc1nc(N2CCN(C(=O)NCCC3CCN(Cc4ccccc4)CC3)[C@H](C)C2)ncc1C#N [4-26] , please.
10 to 100 nM

Same lookup for O=C(NCCC1CCN(Cc2ccccc2)CC1)C1CCN(c2ccc3c(c2)OC(F)(F)O3)CC1 , please.
< 10 nM

Same lookup for N#Cc1cc(N2CCC(C(=O)NC[C@H](O)C3CCN(Cc4ccccc4)CC3)CC2)ccc1F , please.
10 to 100 nM

Same lookup for O=C(NCCC1CCN(Cc2ccccc2)CC1)N1CCN(c2ccc(F)cc2)CC1 , please.
100 to 1000 nM

Same lookup for COc1ccccc1-c1cc2ncc(C(=O)NCCC3CCN(Cc4ccccc4)CC3)c(C)n2n1 , please.
10 to 100 nM

Same lookup for Cc1c(C(=O)NCCC2CCN(Cc3ccccc3)CC2)cnc2cc(-c3cccc(F)c3)nn12 , please.
10 to 100 nM

Same lookup for Cc1c(C(=O)NCCC2CCN(Cc3ccc(O)cc3)CC2)cnc2cc(-c3ccccc3)nn12 , please.
100 to 1000 nM

Same lookup for C[C@@H]1CN(c2ccccn2)CCN1C(=O)NCCC1CCN(Cc2ccccc2)CC1 , please.
100 to 1000 nM
